Target: Aurora kinase A (Homo sapiens);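 further: each reported value is a mean percent inhibition of Aurora-A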
Sequence (whole entry): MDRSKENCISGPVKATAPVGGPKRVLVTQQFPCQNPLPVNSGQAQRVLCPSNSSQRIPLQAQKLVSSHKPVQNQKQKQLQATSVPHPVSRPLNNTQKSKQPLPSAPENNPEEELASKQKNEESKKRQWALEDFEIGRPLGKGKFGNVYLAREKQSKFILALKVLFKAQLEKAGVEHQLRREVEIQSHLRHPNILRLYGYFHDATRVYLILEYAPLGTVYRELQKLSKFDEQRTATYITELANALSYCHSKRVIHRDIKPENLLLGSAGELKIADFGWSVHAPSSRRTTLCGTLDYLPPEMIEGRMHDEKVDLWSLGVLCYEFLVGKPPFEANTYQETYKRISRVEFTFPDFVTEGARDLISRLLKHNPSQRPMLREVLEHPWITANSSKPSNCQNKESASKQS
Conditions: at 0.1 µM
# if value of inhibition reaches 2%, tag yes (1); if it stays below, tag no (0)

# compound, assigned class
rows = [
    ("CN1CCC(n2cnc(-c3ccc(F)cc3)c2-c2ccnc(NCCO)n2)CC1", "no (0)"),
    ("COC(=O)Nc1nc2ccc(Oc3ccc(NC(=O)Nc4cc(C(F)(F)F)ccc4F)cc3)cc2s1", "no (0)"),
    ("CC1=C(C(=O)Nc2ccc3[nH]nc(C)c3c2)C(c2ccc(C(F)(F)F)cc2)CC(=O)N1 (configuration not stated)", "yes (1)"),
    ("CCS(=O)(=O)c1ccc(OC)c(Nc2ncc(-c3cccc(C(C)=O)c3)o2)c1", "yes (1)"),
    ("O=C1Nc2ccccc2/C1=C1\\CCc2cc(O)ccc21", "yes (1)"),
    ("Cc1c2ccc(N(C)c3ccnc(Nc4cccc(S(N)(=O)=O)c4)n3)cc2nn1C", "yes (1)"),
    ("CNC(=O)c1cncc(/C=C/c2ccccc2C)c1", "no (0)"),
    ("COc1cc(N2CCN(C(C)C)CC2)ccc1Nc1nc(Nc2cccc(F)c2C(=O)O)c2cc[nH]c2n1", "yes (1)"),
    ("Cc1nnc(-c2cccc(-c3ccc(C(=O)NCC4CC4)cc3)c2)o1", "no (0)"),
    ("Fc1cccc(COc2ccc(Nc3ncncc3C#Cc3ccccc3)cc2Cl)c1", "yes (1)"),
    ("COc1cccc(Nc2nccc(-c3cnn4ncccc34)n2)c1", "yes (1)"),
    ("FC(F)(F)CNc1nccc(-c2cnn3ncccc23)n1", "yes (1)"),
    ("Cc1cc(O)cc(C)c1/C=C/c1cncc(C(N)=O)c1", "yes (1)"),
    ("Fc1ccc(Nc2nccc(-c3c(-c4ccc(C(F)(F)F)cc4)nn4ncccc34)n2)cc1F", "yes (1)"),
    ("O=C(O[C@H]1CN[C@H](C#Cc2cc3ncnc(Nc4ccc5c(cnn5Cc5ccccc5)c4)c3s2)C1)N1CCOCC1", "no (0)"),
    ("O=C(O[C@H]1CN[C@H](C#Cc2cc3ncnc(Nc4ccc(OCc5cccc(F)c5)c(Cl)c4)c3s2)C1)N1CCOCC1", "no (0)"),
    ("c1ccc(-c2n[nH]cc2-c2ccnc(-c3ccc(OCCn4ccnc4)cc3)c2)nc1", "no (0)"),
    ("NS(=O)(=O)c1cccc(N/C=C2\\C(=O)Nc3ccccc32)c1", "yes (1)"),
    ("COc1ccc(-c2nn3ncccc3c2-c2ccnc(Nc3ccc(F)c(F)c3)n2)cc1", "yes (1)"),
    ("COc1ccccc1-c1cc(/C=C2\\C(=O)Nc3ncc(Br)cc32)cc(Br)c1O", "yes (1)"),
    ("Cc1ccc(-c2cc3c(NC(=O)C4CC4)ncnc3o2)cc1", "yes (1)"),
    ("CC1=C(C(=O)Nc2ccc3[nH]ncc3c2)C(c2ccc(F)cc2)N=C(c2ccc(C(F)(F)F)nc2)N1 (configuration not stated)", "yes (1)"),
]

* * *

The entries below come with measured inhibition values attached.
Molecular target: Ephrin type-B receptor 3 (Homo sapiens) (UniProt P54753);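 further: values are mean percent inhibition of EPHB3 from the GSK PKIS screening panel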
Sequence (whole entry): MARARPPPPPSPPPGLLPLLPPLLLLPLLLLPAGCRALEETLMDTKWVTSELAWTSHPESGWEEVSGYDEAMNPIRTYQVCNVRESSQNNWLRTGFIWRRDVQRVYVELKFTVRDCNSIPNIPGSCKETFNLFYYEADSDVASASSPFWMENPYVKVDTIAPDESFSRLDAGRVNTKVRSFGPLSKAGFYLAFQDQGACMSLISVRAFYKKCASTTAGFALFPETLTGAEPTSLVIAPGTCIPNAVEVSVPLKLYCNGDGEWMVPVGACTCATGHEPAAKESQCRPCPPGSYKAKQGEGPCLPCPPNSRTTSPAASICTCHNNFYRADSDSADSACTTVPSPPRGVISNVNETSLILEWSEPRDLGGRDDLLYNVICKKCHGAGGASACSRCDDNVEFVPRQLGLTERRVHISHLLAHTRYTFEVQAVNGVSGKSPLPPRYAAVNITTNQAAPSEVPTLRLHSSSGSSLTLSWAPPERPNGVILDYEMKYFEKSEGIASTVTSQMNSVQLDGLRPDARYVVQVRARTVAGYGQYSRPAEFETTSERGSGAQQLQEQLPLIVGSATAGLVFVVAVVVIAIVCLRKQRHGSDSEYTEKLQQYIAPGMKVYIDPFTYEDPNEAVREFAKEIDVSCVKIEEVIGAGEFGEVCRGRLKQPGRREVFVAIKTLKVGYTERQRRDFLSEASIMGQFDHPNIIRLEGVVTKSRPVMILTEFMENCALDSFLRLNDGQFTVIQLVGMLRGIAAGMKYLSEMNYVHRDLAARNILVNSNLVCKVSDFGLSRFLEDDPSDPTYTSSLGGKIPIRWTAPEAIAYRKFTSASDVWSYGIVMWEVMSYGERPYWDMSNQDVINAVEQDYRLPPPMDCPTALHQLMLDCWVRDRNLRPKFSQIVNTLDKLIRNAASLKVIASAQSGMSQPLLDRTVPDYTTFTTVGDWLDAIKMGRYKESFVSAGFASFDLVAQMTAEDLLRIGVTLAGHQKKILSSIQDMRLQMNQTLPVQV
Details: at 1 µM

# molecule, result units, inhibition
data = [
    ("Cc1cc(O)cc(C)c1/C=C/c1cncc(C(=O)OC(C)(C)C)c1", "%", 49.2),
    ("Cn1c(-c2nonc2N)nc2cnccc21", "%", 4.62),
    ("COc1cccc(Nc2nccc(-c3cnn4ncccc34)n2)c1", "%", -3.88),
    ("CCOc1ccc2c(-c3ccnc(Nc4cc(OC)cc(C(F)(F)F)c4)n3)cnn2n1", "%", 1.21),
    ("FC(F)(F)CNc1nccc(-c2cnn3ncccc23)n1", "%", 3.96),
    ("NS(=O)(=O)c1ccc(N/N=C2\\C(=O)Nc3cccc(CCc4ccncc4)c32)cc1", "%", 2.85),
    ("CNC(=O)c1ncccc1Nc1nc(Nc2cc3c(cc2OC)CCCN3C(=O)CN(C)C)nc2[nH]ccc12", "%", -0.74),
    ("CS(=O)(=O)Nc1ccc(-c2cc(-c3ccccc3)cc(C(N)=O)c2N)cc1", "%", 2.36),
    ("CS(=O)(=O)CCNCc1ccoc1-c1ccc2ncnc(Nc3ccc(OCc4ccccc4)cc3)c2c1", "%", 2.98),
    ("COC(=O)Nc1nc2ccc(Oc3ccc(NC(=O)Nc4cc(C(F)(F)F)ccc4F)cc3)cc2s1", "%", 36.6),
    ("c1ccc(-c2n[nH]cc2-c2ccnc(-c3ccc(OCCn4ccnc4)cc3)c2)nc1", "%", -0.01),
    ("CCN1CCC(C(=O)Nc2n[nH]c3nnc(-c4cccc(F)c4F)cc23)CC1", "%", 1.64),
    ("CS(=O)(=O)CCNCc1ccc(-c2ccc3ncnc(Nc4ccc(OCc5cccc(C(F)(F)F)c5)cc4)c3c2)o1", "%", 3.57),
    ("CN(c1ccc(NC(=O)NCCN2CCOCC2)cc1)c1ccnc(Nc2ccc(CS(C)(=O)=O)cc2)n1", "%", 4.14),
    ("COc1cccc(-n2ncc3c(N/N=C/c4ccc(C(=O)NCCN(C)C)cc4)ncnc32)c1", "%", 7.32),
    ("CC1(C)CC(n2cnc(-c3ccc(F)cc3)c2-c2ccnc(N)n2)CC(C)(C)N1", "%", 1.51),
    ("c1cnn2ncc(-c3ccnc(NCCCN4CCOCC4)n3)c2c1", "%", 3.37),
    ("COc1ccc(-c2nn3ncccc3c2-c2ccnc(Nc3ccc(F)c(F)c3)n2)cc1", "%", 3.59),
    ("COc1cc(N2CCN(C(C)C)CC2)ccc1Nc1nc(Nc2cccc(F)c2C(=O)O)c2cc[nH]c2n1", "%", 6.24),
    ("NS(=O)(=O)c1cccc(N/C=C2\\C(=O)Nc3ccccc32)c1", "%", 2.58),
    ("O=C(O[C@H]1CN[C@H](C#Cc2cc3ncnc(Nc4ccc5c(ccn5Cc5cc(F)ccc5F)c4)c3s2)C1)N1CCOCC1", "%", 5.15),
    ("CC(C)c1ccc(-c2cc(-c3c[nH]nc3-c3ccccn3)ccn2)cc1", "%", 1.74),
    ("COc1ccccc1-c1cc(/C=C2\\C(=O)Nc3ncc(Br)cc32)cc(Br)c1O", "%", 5.59),
    ("CC1=C(C(=O)Nc2ccc3[nH]ncc3c2)C(c2ccc(F)cc2)N=C(c2ccc(C(F)(F)F)nc2)N1 (stereo not drawn)", "%", 2.31),
    ("N#Cc1cccc(Nc2ncc(-c3ccccc3)o2)c1", "%", 1.53),
    ("Fc1ccc(Nc2nccc(-c3c(-c4ccc(C(F)(F)F)cc4)nn4ncccc34)n2)cc1F", "%", 1.93),
    ("COc1c(C(N)=O)cc(-c2ccc(Cl)cc2)cc1-c1ccc(S(N)(=O)=O)cc1", "%", 4.65),
    ("N#Cc1ccc2c(-c3ccnc(NC4CC4)n3)c(-c3ccc(F)cc3)nn2c1", "%", 4.39),
    ("COc1cc(Nc2ncc(-c3ccccc3)o2)cc(OC)c1", "%", 3.15),
    ("OCCCNc1nccc(-c2c(-c3ccc(F)cc3)nn3cc(C(F)(F)F)ccc23)n1", "%", 1.45),
    ("COc1cc2c(cc1Nc1nc(Nc3cccc(F)c3C(N)=O)c3cc[nH]c3n1)N(C(=O)CN1CCN(C(C)C)CC1)CC2", "%", 0.18),
    ("NC(=O)c1ccc2c(-c3ccnc(NCCCO)n3)c(-c3ccc(F)cc3)nn2c1", "%", 4.65),
    ("CCCNc1cccc(-n2ncc3c(N/N=C/c4ccncc4)ncnc32)c1", "%", 1.75),
]
